Test system: OVCAR-8 ovarian
test-description: NCI-60 one-dose screen, 48 h
measurement-context: 10 µM unless noted
Compounds without any hit were thinned out: in the full panel of roughly 83,000, 20% have a hit. The source made the active and inactive calls. The calls were made as follows: active = growth percent below 10; inactive = the rest.
Output constraint: value belongs to true = active, false = inactive

A selection of reference data follows.
>  <compound>
O=C1CS/C(=N\Nc2cc(=O)[nH]c3ccccc23)N1c1ccccc1

>  <label-class>
false

$$$$
>  <compound>
CC(=O)Nc1ccc(/C=C/C(=O)c2ccccc2)cc1

>  <label-class>
false

$$$$
>  <compound>
c1cc(C2=N[C@@H]3c4ccccc4C[C@@H]3O2)nc(C2=N[C@@H]3c4ccccc4C[C@@H]3O2)c1

>  <label-class>
false

$$$$

Query: Tell me the recorded outcome of this test for COc1ccc(/C=C2\N=C(c3ccccc3)N(C(=O)c3ccccc3O)NC2=O)cc1 .
Response: false

Query: Tell me the recorded outcome of this test for CCCCCCCCCCCCCCCCCCNC(=O)[C@H]1CSC(c2cccs2)N1 (stereo not given in full) .
Response: true

----------
Each record here notes measured growth.
Tested on: UO-31 renal
test-description: NCI-60 one-dose screen, 48 h (100 = growth as untreated, 0 = no growth, -100 = all killed)
measurement-context: 10 µM unless noted
This is part of a sample that, as a whole, favours compounds with a hit. Of some 83,000 tested, about 20% had one in any assay.
Report as a plain number; the unit % is understood.

Consider the following illustrative entries.
>  <compound>
CCCCCCCCC(C)OC(=O)c1nn(C(C)=O)c2ccccc12 (stereo unspecified)

>  <growth (%)>
83.1

$$$$
>  <compound>
CCCCN(CCCC)c1ccc(C(=N)c2ccc(N(CCCC)CCCC)cc2)cc1

>  <growth (%)>
-71.1

$$$$
>  <compound>
CCCCCc1cc[n+](CC(=O)c2ccc([N+](=O)[O-])cc2)cc1

>  <growth (%)>
72.1

$$$$

Query: I would be grateful if you could share the reported growth for FC(F)(F)c1cccc(-c2cn3c(ccc4ccccc43)n2)c1 .
Response: 68.1

Query: I would be grateful if you could share the reported growth for COc1ccc(CCNC2=CC(=O)CCC2)cc1OC .
Response: 81.2

Query: I would be grateful if you could share the reported growth for N/C(=N\C(N)=N\c1nc2ccccc2s1)c1ccncc1 .
Response: 64.2

----------
Each record here notes measured growth.
Test system: PC-3 prostate
test-description: NCI-60 one-dose screen, 48 h (100 = growth as untreated, 0 = no growth, -100 = all killed)
measurement-context: 10 µM unless noted
Method: Growth inhibition of the PC-3 human tumor cell line is measured as a screen for anti-cancer activity. Cells are grown in 96 well plates and exposed to the test compound for 48 hours. Compounds are tested at a single concentration, which is 10^-5 M for most compounds. The reported endpoint is percent growth (GI% or GIPRCNT), where numbers from 0 - 100% represent growth inhibition, and numbers from -100% - 0 represent cell death. For example, a value of 40 represents 60% growth inhibition. […]
The panel holds about 83,000 compounds, 20% with a hit somewhere; the sample as a whole holds those more often. Active and inactive are the calls of the source. How the source made its calls: active means growth percent below 10; inactive means the rest.

Consider the following illustrative entries.
>  <compound>
CCN1CCN(CC(=O)N2c3cccc4cccc(c34)N(C(=O)CN3CCN(CC)CC3)C2c2cn(-c3ccccc3)nc2-c2cccc([N+](=O)[O-])c2)CC1

>  <target-system>
PC-3 prostate

>  <growth>
21.6% (inactive)

$$$$
>  <compound>
Cc1[nH]c2ccc(F)cc2c1CCNC(=O)C1CCN(C(=O)c2ccccc2)C1 (centres undefined)

>  <target-system>
PC-3 prostate

>  <growth>
79.9% [25 µM] (inactive)

$$$$
>  <compound>
CN(C)c1cccc2c(S(=O)(=O)/N=C(\N)Nc3nc4ccccc4s3)cccc12

>  <target-system>
PC-3 prostate

>  <growth>
48.2% (inactive)

$$$$
>  <compound>
CCC(=O)Oc1ccc(/C(=C(/C)Cc2cccc(OC)c2)c2ccc(OCCN(C)C)cc2)cc1

>  <target-system>
PC-3 prostate

>  <growth>
85.5% (inactive)

$$$$
>  <compound>
COc1cc(C2CC(c3ccc4c(c3)OCO4)=NN2C=O)cc(OC)c1OC (centres undefined)

>  <target-system>
PC-3 prostate

>  <growth>
47.9% (inactive)

$$$$

Query: Request body: readout growth, system PC-3 prostate, query COc1ccc(Nc2nc(N)nc3c2CCN(Cc2ccc(OC)cc2OC)C3=O)cc1 . Return the value.
Response: 90% (inactive)

Query: Request body: readout growth, system PC-3 prostate, query N/C(=N\C(N)=N\c1nc2ccccc2s1)c1cccc(Br)c1 . Return the value.
Response: 63.2% (inactive)

Query: Request body: readout growth, system PC-3 prostate, query Cc1ccc(S(=O)(=O)NCCCNc2cc(-c3cn(C(C)(C)C)nc3-c3cccc(O)c3)ccn2)cc1 . Return the value.
Response: 39.6% (inactive)

Query: Request body: readout growth, system PC-3 prostate, query COc1cc(C2NN=C3c4ccccc4CCC32)cc(OC)c1OC (centres undefined) . Return the value.
Response: 75.2% (inactive)

----------
Tested on: HS 578T breast
test-description: NCI-60 one-dose screen, 48 h
measurement-context: 10 µM unless noted
The panel holds about 83,000 compounds, 20% with a hit somewhere; the sample as a whole holds those more often. Calls of active or inactive are those of the source. How the source made its calls: active means growth percent below 10; inactive means the rest.
Output constraint: value belongs to 1 = active, -1 = inactive

A selection of reference data follows.
>  <compound>
CC(C)NCCCNC1=C(Cl)C(=O)c2ccccc2C1=O

>  <label-class>
-1

$$$$
>  <compound>
CCCCCCCCCCCCCCCCNC(=O)OC(C)C

>  <label-class>
-1

$$$$
>  <compound>
Brc1cccc(-c2cc(-c3ccc4c(c3)OCCCO4)[nH]n2)c1

>  <label-class>
-1

$$$$
>  <compound>
CN1CCN(Cc2ccc(NC(=O)c3cncc(C#Cc4cnc(N)c5ccncc45)c3)cc2C(F)(F)F)CC1

>  <label-class>
1

$$$$
>  <compound>
CCCCC(CC)OC(=O)C(Br)CC (stereo unspecified)

>  <label-class>
-1

$$$$
>  <compound>
C/C(=C\c1ccc(OCC(=O)O)c(Cl)c1Cl)[N+](=O)[O-]

>  <label-class>
-1

$$$$
>  <compound>
COc1ccc(Nc2ncccc2C(=O)NCc2cn(Cc3cccc(Oc4ccccc4)c3)nn2)c(OC)c1

>  <label-class>
-1

$$$$
>  <compound>
CN(C)CCCN(c1nc(C(Cl)(Cl)Cl)ns1)c1nc(C(Cl)(Cl)Cl)ns1

>  <label-class>
-1

$$$$

Query: Tell me the recorded outcome of this test for O=C(O)Cc1cccc(=O)c(O)c1C(=O)O .
Response: -1

Query: Tell me the recorded outcome of this test for COc1ccc(-n2c(=S)sc3c(Cl)nc(C)nc32)c(OC)c1 .
Response: -1

Query: Tell me the recorded outcome of this test for CC(C)(C)n1cc(-c2ccnc(NCCCNS(=O)(=O)c3cccc(F)c3)c2)c(-c2cccc(O)c2)n1 .
Response: -1

Query: Tell me the recorded outcome of this test for CC(=O)Oc1cccc(S(=O)(=O)n2cc(C(=O)C(=O)Nc3ccncc3)c3ccccc32)c1 .
Response: -1

Query: Tell me the recorded outcome of this test for CC(O)CN1CCCCC1 (stereo unspecified) .
Response: -1

----------
Tested on: NCI-H226 lung
test-description: NCI-60 one-dose screen, 48 h (100 = growth as untreated, 0 = no growth, -100 = all killed)
measurement-context: 10 µM unless noted
Compounds without any hit were thinned out: in the full panel of roughly 83,000, 20% have a hit.
property: growth (%)
Report as a plain number; the unit % is understood.

>  <input-smiles>
O=[N+]([O-])c1ccc(OCCCOc2ccccc2)cc1

>  <target-system>
NCI-H226 lung

>  <property>
growth

>  <units-symbol>
%

>  <result>
113

$$$$
>  <input-smiles>
COc1cc(NC(N)=NCCC(C)(C)Oc2ccc(C(F)(F)F)cc2)ncc1C#N

>  <target-system>
NCI-H226 lung

>  <property>
growth

>  <units-symbol>
%

>  <result>
60.3

$$$$
>  <input-smiles>
Clc1ccccc1-c1nc2ccccc2[nH]1

>  <target-system>
NCI-H226 lung

>  <property>
growth

>  <units-symbol>
%

>  <result>
120

$$$$
>  <input-smiles>
c1cc(C2=N[C@@H]3c4ccccc4C[C@@H]3O2)nc(C2=N[C@@H]3c4ccccc4C[C@@H]3O2)c1

>  <target-system>
NCI-H226 lung

>  <property>
growth

>  <units-symbol>
%

>  <result>
101

$$$$
>  <input-smiles>
Clc1cc2c(nn1)Nc1ccccc1S2

>  <target-system>
NCI-H226 lung

>  <property>
growth

>  <units-symbol>
%

>  <result>
104

$$$$

// below: growth requested for another compound
Query: Request body: readout growth, system NCI-H226 lung, query CC[N+](CC)=c1cc2oc3cc(N(C)C)ccc3nc-2cc1C . Return the value.
Response: 79

Measured values drawn from PubChem BioAssay (NCI) for this set.
